Target: human TLR3 extracellular domain (amino acids 1-703) with C-terminal poly-histidine tag (human)
Assay: ELISA, coated huTLR3 ECD
PROPERTY: EC50 (µg/mL)
Field format: number, assumed µg/mL, no unit text.

Give its EC50 value. Item: mAb 9 (antibody, V domains shown) VH: QVELQQSGPGLVKPSQTLSLTCAISGDSVSSNSAAWGWIRQSPGRGLEWLGIIQIRSKWYNDYALSVKSRITINPDTSKNQFSLQLNSVTPEDTAVYYCARYSYPFYSIDYWGQGTLVTVSS VL: DIELTQPPSVSVAPGQTARISCSGDNIGSYYVHWYQQKPGQAPVLVIYEDSERPSGIPERFSGSNSGNTATLTISGTQAEDEADYYCQSYDSQFSFGVFGGGTKLTVL 0.0226

Reference source: patent US9932404B2
